The measurements presented in this section are drawn from patent US20240076412A1.

- TESTED ON: T1, extracellular domain of human CD47 (CD47-ECD), residues 1-118, with His6 tag and Avi tag (human, UniProt Q08722 19-136, biotin modification at the C-terminus (Avi tag, BirA) in the form called CD47-Bio)
- T1 construct: also called CD47-ECD-His6; CD47-Bio; not shown: His6 tag and Avi tag from the vector
- PROCEDURE DETAILS: SPR (Biacore T200), IgG1 captured on CM5 chip, CD47 as analyte [Con't]
MEASURED PROPERTY: koff

{"BINDER": "BC18 full-length human IgG1 (antibody, V domains shown, also called anti-CD47 mAb; parental anti-CD47 mAb) VH: QVQLQQSGPGLVKPSETLSLTCTVSGDSINYHYWSWIRQPPGKGLEWIGYIYYSGSTTYNPSLKSRVTMSVDPSKNHFSLKLTSVTAADTALYFCARQRGAYDYWGQGTQVTVSS VL: DIQLTQSPSSVSASVGDRVTIACRASQDIGSRLVWYQQRPGKAPKLLIYAASSLQSGVPSRFSGSGSGTDFTLTISSLQPEDFATYYCQQSYSTPYSFGQGTKLEIK", "MEASURED PROPERTY": "koff", "RECORDED MEASUREMENT": "0.00117 s⁻¹"}
{"BINDER": "BC18m03 (antibody, IgG1, V domains shown) VH: QVQLQESGPGLVKPSETLSLTCTVSGDSINYHYWSWIRQPPGKGLEWIGYIYYSGSTTYNPSLKSRVTMSVDPSKNHFSLKLTSVTAADTALYFCARQRGAYDYWGQGTLVTVSS VL: DIQLTQSPSSVSASVGDRVTIACRASQDIGSRLVWYQQRPGKAPKLLIYAASSLQSGVPSRFSGSGSGTDFTLTISSLQPEDFATYYCQQSYSTPYSFGQGTKLEIK", "MEASURED PROPERTY": "koff", "RECORDED MEASUREMENT": "0.00122 s⁻¹"}
{"BINDER": "BC7m03 (antibody, IgG1, V domains shown) VH: QVQLQQSGPGLVKPSETLSLTCTVSGDSINYHYWSWIRQPPGKGLEWIGYIYYSGSTTYNPSLKSRVTMSVDPSKNHFSLKLTSVTAADTALYFCARQRGAYDYWGQGTLVTVSS VL: DIVMTQSPSSVSASVGDRVTITCRASQDIGSRLAWYQQKPGKAPQLLIYAASSLQSGVPSRFSGSGSGTEFTLTISSLQPDDFATYYCQQYNSFSPITFGQGTRLEIK", "MEASURED PROPERTY": "koff", "RECORDED MEASUREMENT": "0.00118 s⁻¹"}
{"BINDER": "BC7 full-length human IgG1 (antibody, V domains shown) VH: QVQLQQSGPGLVKPSETLSLTCTVSGDSINYHYWSWIRQPPGKGLEWIGYIYYSGSTTYNPSLKSRVTMSVDPSKNHFSLKLTSVTAADTALYFCARQRGAYDYWGQGTLVTVSS VL: DIVMTQSPSSVSASVGDRVTITCRASQGIGSRLAWYQQKPGKAPQLLIYAASSLQSGVPSRFSGSGSGTEFTLTISSLQPDDFATYYCQQYNSFSPITFGQGTRLEIK", "MEASURED PROPERTY": "koff", "RECORDED MEASUREMENT": "0.00394 s⁻¹"}
{"BINDER": "BC7m04 (antibody, IgG1, V domains shown) VH: QVQLQQSGPGLVKPSETLSLTCTVSGDSINYHYWSWIRQPPGKGLEWIGYIYYSGSTTYNPSLKSRVTMSVDPSKNHFSLKLTSVTAADTALYFCARQRGAYDYWGQGTLVTVSS VL: DIVMTQSPSSVSASVGDRVTITCRASQDIGSRLAWYQQKPGKAPKLLIYAASSLQSGVPSRFSGSGSGTDFTLTISSLQPEDFATYYCQQYNSFSPITFGQGTRLEIK", "MEASURED PROPERTY": "koff", "RECORDED MEASUREMENT": "0.00118 s⁻¹"}
